- Subject of test: T1, Factor VIIIa (recombinant FVIII, Kogenate FS, Bayer healthcare, activated with alpha-thrombin) (UniProt P00451 20-2351, limits assumed)
- T1 construct: also called FVIIIa; cofactor
- T1 sequence (looked up): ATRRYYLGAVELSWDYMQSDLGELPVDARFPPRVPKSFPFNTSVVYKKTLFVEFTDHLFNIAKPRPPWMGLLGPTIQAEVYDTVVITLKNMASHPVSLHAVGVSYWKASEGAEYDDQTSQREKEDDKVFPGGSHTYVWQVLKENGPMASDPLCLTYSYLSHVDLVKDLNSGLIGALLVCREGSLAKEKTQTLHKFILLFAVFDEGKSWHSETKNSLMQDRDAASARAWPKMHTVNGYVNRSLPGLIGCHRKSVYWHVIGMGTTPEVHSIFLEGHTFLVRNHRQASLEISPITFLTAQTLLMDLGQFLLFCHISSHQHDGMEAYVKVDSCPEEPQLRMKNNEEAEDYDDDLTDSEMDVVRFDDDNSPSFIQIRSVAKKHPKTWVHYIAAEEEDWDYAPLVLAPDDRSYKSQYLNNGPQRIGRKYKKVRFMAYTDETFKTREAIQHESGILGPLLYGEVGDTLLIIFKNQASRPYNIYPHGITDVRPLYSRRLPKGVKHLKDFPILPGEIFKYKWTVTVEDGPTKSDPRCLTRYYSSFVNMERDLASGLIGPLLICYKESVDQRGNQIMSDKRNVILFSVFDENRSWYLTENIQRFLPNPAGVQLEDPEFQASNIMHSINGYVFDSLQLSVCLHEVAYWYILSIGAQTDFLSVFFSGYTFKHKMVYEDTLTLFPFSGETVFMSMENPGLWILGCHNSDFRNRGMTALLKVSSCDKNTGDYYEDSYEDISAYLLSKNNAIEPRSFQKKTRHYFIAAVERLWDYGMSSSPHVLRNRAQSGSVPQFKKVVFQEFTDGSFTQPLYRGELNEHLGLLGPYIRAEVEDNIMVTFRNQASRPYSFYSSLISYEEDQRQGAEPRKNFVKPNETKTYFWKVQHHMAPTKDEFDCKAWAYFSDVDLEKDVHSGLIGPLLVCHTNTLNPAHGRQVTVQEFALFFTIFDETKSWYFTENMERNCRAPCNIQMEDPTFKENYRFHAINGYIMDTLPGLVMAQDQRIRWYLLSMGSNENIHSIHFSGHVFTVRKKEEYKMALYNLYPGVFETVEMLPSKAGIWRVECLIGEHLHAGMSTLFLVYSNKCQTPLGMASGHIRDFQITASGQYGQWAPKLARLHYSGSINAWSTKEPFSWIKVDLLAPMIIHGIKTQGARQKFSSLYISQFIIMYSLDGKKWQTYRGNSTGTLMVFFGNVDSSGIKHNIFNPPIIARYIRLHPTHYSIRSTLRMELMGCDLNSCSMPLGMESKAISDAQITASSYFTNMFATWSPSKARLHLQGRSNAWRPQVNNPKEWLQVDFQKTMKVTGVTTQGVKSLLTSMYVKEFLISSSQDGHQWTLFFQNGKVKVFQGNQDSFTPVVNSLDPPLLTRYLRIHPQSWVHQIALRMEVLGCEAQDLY
- Experiment summary: same assay; KD-app of Catalyst Biosciences WT FIXa divided by KD-app of the variant

[
  {
    "Binder": "FIXa-Y259F/K265T/Y345T (enzyme, also called Y94F/K98T/Y177T (chymotrypsin numbering)) chain 1: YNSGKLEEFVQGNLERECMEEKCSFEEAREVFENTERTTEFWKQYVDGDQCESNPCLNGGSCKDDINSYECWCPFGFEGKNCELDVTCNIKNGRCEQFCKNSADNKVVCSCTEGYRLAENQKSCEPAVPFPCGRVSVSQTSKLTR chain 2: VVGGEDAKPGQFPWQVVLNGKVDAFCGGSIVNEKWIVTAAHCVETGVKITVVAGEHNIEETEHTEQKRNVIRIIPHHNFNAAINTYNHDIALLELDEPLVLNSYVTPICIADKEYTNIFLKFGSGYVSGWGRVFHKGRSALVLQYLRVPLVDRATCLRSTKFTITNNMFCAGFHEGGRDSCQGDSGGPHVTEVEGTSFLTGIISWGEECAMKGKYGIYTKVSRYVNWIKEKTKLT",
    "KD-WT/KD-mut": "0.8 ratio"
  }
]

The reported measurements were obtained from patent US20210230570A1.
